// values below are AC50; system is Delta-type opioid receptor (Homo sapiens, UniProt P41143); further: assay procedure not described here
Sequence (P41143 whole entry): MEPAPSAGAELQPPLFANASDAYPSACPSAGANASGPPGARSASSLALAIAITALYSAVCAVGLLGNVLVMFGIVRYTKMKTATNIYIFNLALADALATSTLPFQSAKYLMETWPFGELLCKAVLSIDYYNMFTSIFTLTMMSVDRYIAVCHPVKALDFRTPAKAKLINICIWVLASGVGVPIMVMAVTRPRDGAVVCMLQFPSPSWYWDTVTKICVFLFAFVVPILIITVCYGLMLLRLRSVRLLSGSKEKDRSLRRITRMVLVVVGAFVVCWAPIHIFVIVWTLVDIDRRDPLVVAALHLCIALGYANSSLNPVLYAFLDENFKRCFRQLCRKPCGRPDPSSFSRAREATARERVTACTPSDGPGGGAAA

>>> print(df.to_string())
                                   molecule  readout_label  endpoint_value
0  CC#CCn1c(N2CCC[C@@H](N)C2)nc2c1c(=O)n(Cc1nc(C)c3ccccc3n1)c(=O)n2C [LINAGLIPTIN]           AC50         > 10 µM

// lookup AC50 for CCC(=O)O[C@@H](O[P@](=O)(CCCCc1ccccc1)CC(=O)N1C[C@H](C2CCCCC2)C[C@H]1C(=O)O)C(C)C [FOSINOPRIL]
> 30 µM

// lookup AC50 for Nc1nc(O)c2ncn(COC(CO)CO)c2n1 [GANCICLOVIR]
> 30 µM

// lookup AC50 for CC1(C)S[C@@H]2[C@H](NC(=O)[C@H](N)c3ccc(O)cc3)C(=O)N2[C@H]1C(=O)O [AMOXICILLIN]
> 30 µM

// lookup AC50 for CO[C@@]1(NC(=O)Cc2cccs2)C(=O)N2C(C(=O)O)=C(COC(N)=O)CS[C@@H]21 [CEFOXITIN]
> 30 µM

// lookup AC50 for O=C(O)c1ccccc1OP(=O)(O)O [FOSFOSAL]
> 30 µM
